For each entry below, report its IC50 value.
Biological target: T1, human CaMKII-α hub domain (human, UniProt Q9UQM7 345-475)
T1 construct: Ca2+/calmodulin-dependent protein kinase II alpha, human, hub domain; residues 345-475 are stated for the crystallization construct; The limits are stated only for the crystallization construct; also called the hub; isolated hub; source: E. coli BL21, purified (Ni-NTA, Q-FF, Superose 6); not shown: His6, N-terminal, cleaved; copies: 12 or 14
T1 sequence (looked up): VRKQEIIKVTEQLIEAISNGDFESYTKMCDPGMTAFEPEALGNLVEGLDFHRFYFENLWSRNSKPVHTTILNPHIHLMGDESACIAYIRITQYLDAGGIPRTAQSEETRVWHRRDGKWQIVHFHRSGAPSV
Test: fluorescence polarisation; competition: 2 nM BODIPY labelled peptide bound to 30 μM hub, unlabeled peptide 0-500 μM added; KD from a non-linear fit assuming one peptide site per subunit and equal KD of labelled and unlabeled peptide
Details: both partners purified
Square brackets hold non-standard residues; d marks the D form. Ends that are not written are not given here. pT = C[C@@H](OP(=O)(O)O)[C@H](N)C(=O)O

Quick one: IC50 for LKKFNARRKLKGAILT[pT]MLAC (human CaMKII-α, residues 290-309; added C-terminal cysteine; also called peptide phosphorylated on Thr 306; source: synthetic peptide, bought: Elim Biopharm, HPLC purified) [Peptide D, unlabeled (human CaMKII-α 290-309 plus C-terminal cysteine, phosphorylated on Thr 306)] ?
~100 µM

And the next one, LKKFNARRKLKGAILTTMLA (also called the unphosphorylated peptide; wild type peptide; source: synthetic peptide, gift of Leta Nutt (St. Jude Children's Research Hospital), HPLC purified) [Peptide B (human CaMKII-α 290-309, unphosphorylated, unlabeled)] ?
~100 µM

And the next one, LKKFNARRKLKGAIL[pT]TMLAC (human CaMKII-α, residues 290-309; added C-terminal cysteine; also called peptide phosphorylated on Thr 305; source: synthetic peptide, bought: Elim Biopharm, HPLC purified) [Peptide C, unlabeled (human CaMKII-α 290-309 plus C-terminal cysteine, phosphorylated on Thr 305)] ?
~100 µM

// data source = paper PMC4859805
